Target: 5HT6-human recombinant receptor (Homo sapiens, UniProt P50406)
Sequence (P50406 whole entry): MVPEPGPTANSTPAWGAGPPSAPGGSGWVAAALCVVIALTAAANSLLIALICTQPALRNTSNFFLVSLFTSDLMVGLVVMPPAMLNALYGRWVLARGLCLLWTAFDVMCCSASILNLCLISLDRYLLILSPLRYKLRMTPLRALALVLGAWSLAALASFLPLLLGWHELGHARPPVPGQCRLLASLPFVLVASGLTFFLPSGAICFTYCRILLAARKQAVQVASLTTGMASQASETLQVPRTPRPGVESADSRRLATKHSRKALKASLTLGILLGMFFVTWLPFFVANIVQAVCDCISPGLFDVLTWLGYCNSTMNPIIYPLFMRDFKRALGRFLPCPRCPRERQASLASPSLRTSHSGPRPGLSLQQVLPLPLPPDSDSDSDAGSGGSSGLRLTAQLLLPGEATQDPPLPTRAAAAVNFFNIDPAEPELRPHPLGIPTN
Assay: Binding to serotonin receptor 5-HT6 ([3H]-LSD radioligand, HEK-293 cell membranes)
Conditions: [3H]-LSD 2.7 nM, 60 minutes at 37° C., tests in triplicate
Experimental: Binding to Serotonin Receptor 5ht6 Cell membranes of HEK-293 cells expressing the 5HT6-human recombinant receptor were supplied by Receptor Biology. In said membranes the receptor concentration is 2.18 pmol/mg protein and the protein concentration is 9.17 mg/ml. […] The commercial membrane is diluted (1:40 dilution) with the binding buffer: 50 mM Tris-HCl, 10 mM MgCl2, 0.5 mM EDTA (pH 7.4). […] Non-specific binding is determined in the presence of 100 μM of serotonin, Tests were made in triplicate. […]
pKi: −log10 of the molar value. Structures can show the parent of a compound that is named as a salt.
Output 1.0 for pKi not less than 8; output 0.0 otherwise.

> print(dat)
                                    compound  label
 1  CC(=O)N1CCc2cc(NS(=O)(=O)c3c(Br)nc4sccn34)ccc21 [Compound 37]    1.0
 2  CC(=O)N1CCc2cc(NS(=O)(=O)c3c(Cl)nc4sccn34)ccc21 [Compound 19]    1.0
 3  O=S(=O)(Nc1ccc2[nH]ncc2c1)c1c(Cl)nc2sccn12 [Compound 25, hydrochloride]    1.0
 4  O=S(=O)(Nc1ccc2c(c1)CCN2)c1c(Cl)nc2sccn12 [Compound 23, hydrochloride]    0.0
 5  Cn1ccc2cc(NS(=O)(=O)c3c(Cl)nc4sccn34)ccc21 [Compound 15]    0.0
 6  CCN(CC)c1ccc(NS(=O)(=O)c2c(Cl)nc3sccn23)cc1 [Compound 32, hydrochloride]    1.0
 7  O=C1CCc2ccc(NS(=O)(=O)c3c(Br)nc4sccn34)cc21 [Compound 41, hydrochloride]    1.0
 8  CC(=O)N1CCc2ccc(NS(=O)(=O)c3c(Br)nc4sccn34)cc21 [Compound 38]    0.0
 9  O=S(=O)(Nc1ccc2c(c1)COC2)c1c(Cl)nc2sccn12 [Compound 31]    0.0
10  O=S(=O)(Nc1ccc2c(c1)CCCC2)c1c(Cl)nc2sccn12 [Compound 30]    0.0
